Tested on: galium (catchweed bedstraw, Galium aparine)
Test name: Test A postemergence, galium
Format: in vivo
Run parameters: Postemergence, 500 g ai/ha; visual injury vs untreated controls after approx. 10 days; 0 to 100 scale (0 no effect, 100 complete control)
The threshold is inclusive: Galium plant response rating of exactly 80 counts as fulfilled; values below receive not fulfilled.

Example entries and their recorded answers appear below.
| Compound | Assigned category |
| --- | --- |
| Cc1cc(C)c(N(S(=O)(=O)C(F)(F)F)S(=O)(=O)C(F)(F)F)cc1C(=O)N1CCC(F)(F)CC1 [Compound 210] | fulfilled |
| Cc1cc(C)c(C2=NOC3(CCC(C)(C)CC3)C2)cc1NS(=O)(=O)C(F)(F)F [Compound 163] | fulfilled |
| Cc1cc(C)c(C2=NOC3(CCSCC3)C2)cc1NS(=O)(=O)C(F)(F)F [Compound 176] | fulfilled |

Could you now look at the following compound, please?
Prompt line: In plain terms: is recorded Galium plant response rating at least 80 for Cc1cc(C)c(N(S(C)(=O)=O)S(=O)(=O)C(F)(F)F)cc1-c1cc(Cl)nn(C)c1=O [Compound 46] ?
Response line: not fulfilled

* * *

Let's look at some compounds and their measured Pigweed plant response rating.
Test system: pigweed (Amaranthus retroflexus)
Test name: Test A postemergence, pigweed
Assay type: in vivo
Run parameters: Postemergence, 500 g ai/ha; visual injury vs untreated controls after approx. 10 days; 0 to 100 scale (0 no effect, 100 complete control)
Excerpt: Seeds of plant species selected from barnyardgrass (Echinochloa crus-galli), kochia (Bassia scoparia), ragweed (common ragweed, Ambrosia artemisiifolia), Ryegrass, Italian (Italian ryegrass, Lolium multiflorum), Foxtail, Giant (giant foxtail, Setaria faberi), and pigweed (Amaranthus retroflexus) were planted into a blend of loam soil and sand and treated preemergence with a directed soil spray using test chemicals formulated in a non-phytotoxic solvent mixture which included a surfactant. […]
Please reply with the number alone, leaving off any unit.

Prompt line: Quick one: Pigweed plant response rating of Cc1cc(Cl)c(NS(=O)(=O)C(F)(F)F)cc1C(=O)N1CCC(F)CC1 [Compound 201] ?
Response line: 100

Prompt line: Try the compound CCN(CC)C(=O)c1cc(NS(=O)(=O)C(F)(F)F)c(C)cc1C [Compound 188]
Response line: 80

Prompt line: Same question, Cc1cc(C)c(C2=NOC3(CCC(C)(C)CC3)C2)cc1NS(=O)(=O)C(F)(F)F [Compound 163] this time
Response line: 80

Prompt line: Then what about the compound Cc1cc(Cl)c(C2=NOC(C)(C)C2)cc1N(S(=O)(=O)C(F)(F)F)S(=O)(=O)C(F)(F)F [Compound 184] ?
Response line: 40

Prompt line: Repeat for the following compound: Cc1cc(C)c(-n2nccc(Cl)c2=O)cc1NS(=O)(=O)C(F)(F)F [Compound 82]
Response line: 40

Prompt line: Now the same for Cc1c(NS(=O)(=O)C(F)(F)F)cc(C(=O)N2CC(C)OC(C)C2)c(C)c1F (stereo not shown) [Compound 116]
Response line: 80

Prompt line: Same question, Cc1cc(C(F)(F)F)c(NS(=O)(=O)C(F)(F)F)cc1C(=O)N1CCCCC1 [Compound 165] this time
Response line: 90

* * *

Tested on: Foxtail, Giant (giant foxtail, Setaria faberi)
Test name: Test A preemergence, Foxtail, Giant
Format: in vivo
Run parameters: Preemergence, 500 g ai/ha; 0 to 100 scale (0 no effect, 100 complete control)
// reported Plant response rating, Foxtail, Giant for each item listed
Would you mind answering with just the numeric figure?

| Molecule | Readout type | Readout value |
| --- | --- | --- |
| Cc1cc(Cl)c(C2=NOC3(CCCC3)C2)cc1N(S(=O)(=O)C(F)(F)F)S(=O)(=O)C(F)(F)F [Compound 186] | Plant response rating, Foxtail, Giant | 100 |
| Cc1c(NS(=O)(=O)C(F)(F)F)cc(C(=O)N2CCCCC2)c(C)c1F [Compound 191] | Plant response rating, Foxtail, Giant | 100 |
| Cc1cc(C)c(C(=O)N2CCCOCC2)cc1NS(=O)(=O)C(F)(F)F [Compound 160] | Plant response rating, Foxtail, Giant | 100 |

Query molecule follows.
Prompt line: Fill blank: measured Plant response rating, Foxtail, Giant of the molecule COc1cnn(C)c(=O)c1-c1cc(NS(=O)(=O)C(F)(F)F)c(C)cc1C [Compound 65] is ____.
Response line: 100
